Numbers sourced from the RNAGym collection of RNA variant scans (doi:10.7554/elife.90254).

B1: LINE1-full (parent)
chain: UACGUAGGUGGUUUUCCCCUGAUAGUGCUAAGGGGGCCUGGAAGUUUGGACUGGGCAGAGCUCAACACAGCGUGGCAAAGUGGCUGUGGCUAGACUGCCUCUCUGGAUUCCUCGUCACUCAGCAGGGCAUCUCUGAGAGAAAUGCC

Variants of: B1
ASSAY TEXT: self-cleavage, relative activity (ratio to wild type); higher = more cleavage; in vitro, sequencing; the parent is a self-cleaving ribozyme
Returns label 1 if the recorded self-cleavage is greater than or equal to 0.6, and label 0 otherwise.

U39C U108C	label 1
U15C A140G	label 1
U20C A22G	label 1
A24U G126U	label 1
U13A C71A	label 0
U87C G137A	label 0
U29A U46C	label 1
U14C A24U	label 1

## Input Is it the case that G10A A78G has self-cleavage reaching or exceeding 0.6?
## Output label 1

## Input Is it the case that U96C G106U has self-cleavage reaching or exceeding 0.6?
## Output label 0

## Input Is it the case that U20A A59U has self-cleavage reaching or exceeding 0.6?
## Output label 1
